Biological target: human ether-à-go-go-related gene (hERG) potassium channel (human);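 note: peak tail current of the secondary pulse compared with the same well before compound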
Sequence (Q12809 whole entry, looked up): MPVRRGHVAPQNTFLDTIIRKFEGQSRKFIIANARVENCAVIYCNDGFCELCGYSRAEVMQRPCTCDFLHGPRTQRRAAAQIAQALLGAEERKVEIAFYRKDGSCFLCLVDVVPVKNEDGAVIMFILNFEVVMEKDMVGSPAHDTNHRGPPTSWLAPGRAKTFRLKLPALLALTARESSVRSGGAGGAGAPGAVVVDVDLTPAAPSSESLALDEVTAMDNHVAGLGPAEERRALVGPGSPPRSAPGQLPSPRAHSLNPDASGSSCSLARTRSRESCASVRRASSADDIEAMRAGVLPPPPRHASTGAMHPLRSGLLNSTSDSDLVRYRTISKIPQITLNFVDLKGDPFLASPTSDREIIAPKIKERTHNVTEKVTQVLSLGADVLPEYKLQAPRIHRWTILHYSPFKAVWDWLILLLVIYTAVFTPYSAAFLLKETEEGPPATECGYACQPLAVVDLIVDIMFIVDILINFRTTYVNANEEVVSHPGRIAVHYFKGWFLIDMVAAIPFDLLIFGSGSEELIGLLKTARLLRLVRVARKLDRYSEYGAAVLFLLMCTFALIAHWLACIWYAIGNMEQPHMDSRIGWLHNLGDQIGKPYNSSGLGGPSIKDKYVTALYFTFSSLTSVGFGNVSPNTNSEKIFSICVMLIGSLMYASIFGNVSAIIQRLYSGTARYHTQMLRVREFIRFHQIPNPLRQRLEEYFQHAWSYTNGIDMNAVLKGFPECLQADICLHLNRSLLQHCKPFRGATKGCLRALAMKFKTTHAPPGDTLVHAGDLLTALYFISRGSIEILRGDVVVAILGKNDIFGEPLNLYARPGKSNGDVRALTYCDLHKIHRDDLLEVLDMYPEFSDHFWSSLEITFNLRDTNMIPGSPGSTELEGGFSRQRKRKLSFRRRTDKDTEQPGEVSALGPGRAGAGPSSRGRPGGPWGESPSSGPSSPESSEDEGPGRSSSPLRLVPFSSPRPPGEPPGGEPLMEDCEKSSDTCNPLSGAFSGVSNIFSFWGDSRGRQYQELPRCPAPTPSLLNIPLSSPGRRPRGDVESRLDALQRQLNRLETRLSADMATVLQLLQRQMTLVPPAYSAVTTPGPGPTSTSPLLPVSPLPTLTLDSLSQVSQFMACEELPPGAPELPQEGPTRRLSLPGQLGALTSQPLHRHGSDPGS
Test: primary screen, population patch clamp on CHO cells stably expressing hERG; higher = less effect of the substance
Hit rate of the full screen: of about 310,000 compounds, about 14,000 (4.5%) showed an effect of 50% or more. The effect is printed as a negative number. For the sample, strong results were picked, then their nearest neighbours and some compounds at random.
Field: hERG current change (%, negative = inhibition) at 10uM. Provide a value for each of the compounds that follow.
Answers are plain numbers, in %.

Example cases with answers are listed next.
[
  {
    "Compound": "CC(C)Oc1ccc(C(CC(=O)NCCCN(C)C)c2ccc(F)cc2)cc1 (stereo not shown)",
    "Observed": -57.1
  },
  {
    "Compound": "COCc1nnc(SCC(=O)NCc2ccccc2)n1-c1ccccc1",
    "Observed": -3.33
  },
  {
    "Compound": "COc1ccc(C(=O)N2CCN(c3ccc(C)cc3)CC2)cc1OC",
    "Observed": -21.8
  }
]

Take each entry in turn and give its hERG current change (%, negative = inhibition) at 10uM.
1. CC(Sc1cnc2ccccc2n1)C(=O)O (stereo not shown)
2. CC(=O)Nc1nnc(SCC(=O)N2C(C)CCCC2C)s1 (stereo not shown)
3. COc1ccc(C(=O)N2CCN(c3ccc(C)cc3C)CC2)cc1OC
4. O=C(CCCN1C(=O)/C(=C\c2ccccc2)SC1=S)Nc1ccc(O)cc1C(=O)O
5. COc1ccccc1-c1nc(S(=O)(=O)c2ccccc2)c(N2CCCCC2)o1

1: 15.9; 2: 12.9; 3: -68.5; 4: 18.1; 5: 14.4

Please state hERG current change (%, negative = inhibition) at 10uM for every compound in the list that follows.
1. Cn1c(SCC(=O)N2CCCCC2)nc2cccnc21
2. CCN1CCN(CC(=O)c2c(C)n(Cc3ccccc3)c3ccc(OC)cc23)CC1
3. COc1ccc(C(=O)N2CCN(c3ccc(C)c(C)c3)CC2)cc1OC
4. CCCC(=O)Nc1nnc(SCC(=O)N2C(C)CCCC2C)s1 (stereo not shown)
5. COc1cc(OC)c(C2=NOC(C(=O)O)C2)cc1Cl (stereo not shown)
6. COc1ccc(C(=O)N2CCN(C(=O)c3ccc(-c4ccccc4)cc3)CC2)cc1OC
7. O=C(c1ccc(Cl)cc1)N1CCC(O)(CSc2ccccc2)CC1
8. CC(=O)NC1=C(NC2CCS(=O)(=O)C2)C(=O)c2ccccc2C1=O (stereo not shown)

22.2
-41.3
-6.14
-50.1
5.14
-43.6
-38.1
18.4
